All values here come from patent US10525041B2.

measured target: human V2 receptor (Homo sapiens, UniProt P30518)
Sequence (P30518 whole entry): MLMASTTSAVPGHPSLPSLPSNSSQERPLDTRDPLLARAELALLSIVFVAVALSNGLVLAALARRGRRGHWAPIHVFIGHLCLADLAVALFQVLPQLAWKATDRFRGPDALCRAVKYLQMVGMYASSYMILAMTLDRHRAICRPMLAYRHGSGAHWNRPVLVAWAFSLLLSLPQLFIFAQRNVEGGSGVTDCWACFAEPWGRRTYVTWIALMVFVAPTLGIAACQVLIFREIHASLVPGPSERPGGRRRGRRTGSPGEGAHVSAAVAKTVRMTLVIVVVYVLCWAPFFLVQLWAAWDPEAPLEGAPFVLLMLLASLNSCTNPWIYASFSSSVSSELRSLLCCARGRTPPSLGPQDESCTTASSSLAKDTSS
assay method text: Cellular in vitro assay for vasopressin receptor activity, V2 cell line (CRE-luciferase)
study conditions: CHO cell line transfected with human V2 receptor; agonist [Arg8]-vasopressin at EC50 concentration, 3 hours; read-out: IC50hV2
parameter: IC50 (nM)

Reference set (4 entries):
> print(dat)
                                   compound  value.observed
1  O=c1n(Cc2nc(C(F)(F)C3CCOCC3)n(-c3ccccc3Cl)n2)nc(-c2ccc(Cl)cc2)n1C[C@H](O)C(F)(F)F [Example 77]            7.03
2  CC(F)c1nc(Cn2nc(-c3ccc(Cl)cc3)n(C[C@H](O)C(F)(F)F)c2=O)nn1-c1ncccc1Cl (single isomer, unassigned) [Example 20]            5.95
3  CCc1ccccc1-n1nc(Cn2nc(-c3ccc(Cl)cc3)n(C[C@H](O)C(F)(F)F)c2=O)nc1C(C)F (mixture of isomers) [Example 28]            0.76
4  CC(F)(F)c1nc(Cn2nc(-c3ccc(Cl)cc3)n(C[C@H](O)C(F)(F)F)c2=O)nn1-c1ccccc1OC(F)F [Example 63]            6.95

P: CC(F)c1nc(Cn2nc(-c3ccc(Cl)cc3)n(C[C@H](O)C(F)(F)F)c2=O)nn1-c1ccccc1C(F)(F)F (mixture of isomers) [Example 22]
Q: Cc1ccccc1-n1nc(Cn2nc(-c3ccc(Cl)cc3)n(C[C@H](O)C(F)(F)F)c2=O)nc1C(C)(F)F [Example 64]
R: CC(F)c1nc(Cn2nc(-c3ccc(Cl)cc3)n(C[C@H](O)C(F)(F)F)c2=O)nn1-c1cnccc1Cl (single isomer, unassigned) [Example 5]
S: CC(F)c1nc(Cn2nc(-c3ccc(Cl)cc3)n(C[C@H](O)C(F)(F)F)c2=O)nn1-c1ccccc1C(F)(F)F (single isomer, unassigned) [Example 23]
Exercise: Hey, can you sort those compounds up there by IC50, smallest first? Answer by writing out the labels in the requested order.
Solution: Q, P, S, R
